# System: MDA-MB-231
# Measurement Description: cells
# Study Conditions: Homo sapiens, MDA-MB-231, 120 h
pEC50: −log10 of the molar value.
Measure: pEC50

Smiles Code	Measure	Value Reported
CN(C)C1CCN(CCn2nc(-c3ccc(NC(=O)OC(C)(C)C)nc3)c3c(N)ncnc32)CC1	pEC50	4.75
COc1ccc(-c2nn(CCN3CCC(N(C)C)CC3)c3ncnc(N)c23)cc1NC(=O)OC(C)(C)C	pEC50	4.54
COc1cc(-c2nn(CCN3CCC(N(C)C)CC3)c3ncnc(N)c23)ccc1NCc1ccccn1	pEC50	4.40
CN(C)C1CCN(CCn2nc(-c3ccc(NC(=O)OC(C)(C)C)c(O)c3)c3c(N)ncnc32)CC1	pEC50	5.01
COc1cc(-c2nn(CCN3CCC(N(C)C)CC3)c3ncnc(N)c23)ccc1N	pEC50	5.17
COc1cc(-c2nn(CCN3CCC(OC)CC3)c3ncnc(N)c23)ccc1NC(=O)OC(C)(C)C	pEC50	5.71
COc1cc(-c2nn(CCN3CCC(N(C)C)CC3)c3ncnc(N)c23)ccc1NCc1cccnc1	pEC50	5.38
COc1cc(-c2ccn(CCN3CCC(N(C)C)CC3)n2)ccc1NC(=O)OC(C)(C)C	pEC50	4.49
CN(C)C1CCN(CCn2nc(-c3cccc(NC(=O)OC(C)(C)C)c3)c3c(N)ncnc32)CC1	pEC50	4.57
